Tested on: ACHN
Assay: NCI tumour cell line growth inhibition, 48 h
The source made the active and inactive calls. No stated cut-off is given here; in the data, active = GI50 up to about 1.1 µM and inactive = higher.
Please answer using one outcome listed in 1 (active), 0 (inactive)

Known results for molecules:
{"molecule": "O=C(O)C1CC2C3CCC2C1C3=O (stereo not drawn)", "system.name": "ACHN", "category.label": 0}
{"molecule": "CC(=O)Oc1c2c(c(OC(C)=O)c3c1n(C(C)=O)c1ccccc1n3C(C)=O)n(C(C)=O)c1ccccc1n2C(C)=O", "system.name": "ACHN", "category.label": 0}

Challenge: Hello, I am checking results. What call was entered for Fc1cccc(CSc2ncnc3c2ncn3C2CCCS2)c1 (stereo not drawn) ?
Response given: 0

Challenge: `O=C(NO)c1cccc(OCc2ccc(Br)cc2)c1` ?
Response given: 0

Challenge: `COc1ccc2cc3c4cc(OC)c(OC)cc4ccn3c2c1` ?
Response given: 0

Challenge: `Cc1c2cc[n+](C)cc2c(C)c2c1[nH]c1ccc(Cl)cc12` ?
Response given: 0

Challenge: `O=C1c2cccnc2-c2nccc3ccnc1c23` ?
Response given: 1

Challenge: COC(=O)[C@@H]1c2cc3c(c(O)c2[C@@H](OC2OC(C)C(OC)C(C)(OC)C2OC)C[C@]1(C)O)C(=O)c1c(O)cc2c(c1C3=O)O[C@H]1O[C@]2(C)[C@H](O)[C@@H](N(C)C)[C@@H]1O (stereo partly drawn) ?
Response given: 1

Challenge: `CCN(CC)CCO/N=C1\CC[C@H]2[C@@H]3CC=C4C[C@@H](O)CC[C@]4(C)[C@H]3CC[C@]12C` ?
Response given: 0

Challenge: CC(Br)C(=O)NC(CO)C(=O)O (stereo not drawn) ?
Response given: 0

---

System: 786-0
Test: NCI tumour cell line growth inhibition, 48 h
Active and inactive are the calls of the source. Rule as the data show it: active = GI50 up to about 1.1 µM and inactive = higher.
Please answer using one outcome listed in Yes = active, No = inactive

Known results for compounds:
{"compound": "CC(N)CC(=O)O (stereo unspecified)", "category.label": "No"}
{"compound": "CC(C)CCCC(C)[C@H]1CCC2[C@@H]3CCC4Nc5c(cnn5-c5ccccc5)C[C@]4(C)C3CC[C@@]21C (stereo partly specified)", "category.label": "No"}
{"compound": "O=C1c2cccnc2-c2nccc3ccnc1c23", "category.label": "Yes"}

Challenge: Hello, I am checking results. What call was entered for `CN(CCN(C)CCN(C)C(=O)Cc1ccc(Cl)c(Cl)c1)CCN1CCCC1` ?
Response given: No

Challenge: `CCN(CC)c1ccc2cc(C(=O)Nc3nc(C45CC6CC(CC(C6)C4)C5)cs3)c(=O)oc2c1` ?
Response given: No

Challenge: `Cc1cc(NS(=O)(=O)c2ccc(Nc3c4ccccc4nc4c(C(=O)NCCO)cccc34)cc2)no1` ?
Response given: No

Challenge: `CC(C)(C)c1ccc(-n2c3nc(=O)n(-c4ccccc4CO)c(=O)c-3cc3ccccc32)cc1` ?
Response given: No

Challenge: CC(=O)OC1COC(n2c(N)c(C#N)c(C)c(C#N)c2=S)C(OC(C)=O)C1OC(C)=O (stereo unspecified) ?
Response given: No

Challenge: O=C1OCc2c1cc1ccc(O)c(OC3OC(CO)C(O)C(O)C3O)c1c2-c1ccc2c(c1)OCO2 (stereo unspecified) ?
Response given: No

Challenge: `Cn1c(=O)c2c(nc(C(=N)SCC(=O)O)n2C)n(C)c1=O` ?
Response given: No

Challenge: CC/C=C\C/C=C\C/C=C\CCCCCCCC(=O)OCC(O)CO (stereo unspecified) ?
Response given: No

---

Test system: K562
Assay: NCI tumour cell line growth inhibition, 48 h
The source made the active and inactive calls. No stated cut-off is given here; in the data, active = GI50 up to about 1.1 µM and inactive = higher.
Please answer using one outcome listed in active, inactive

Known results for molecules:
{"molecule": "Cc1cccc(/C=N/NC(=S)N(C)CCc2ccccn2)n1", "system.name": "K562", "category.label": "active"}
{"molecule": "CC1=C2C(=C[C@@](C)(CO)[C@@H]2O)C(=O)[C@](C)(O)C12CC2", "system.name": "K562", "category.label": "active"}
{"molecule": "O=C(O)C(Br)C(Br)C(=O)O (stereo not given)", "system.name": "K562", "category.label": "inactive"}

Challenge: Hello, I am checking results. What call was entered for `CC1=CC(=O)NCCN1C` ?
Response given: inactive

Challenge: `O=[N+]([O-])/C=C/c1cn(CCCCCCCCn2cc(/C=C/[N+](=O)[O-])c3ccccc32)c2ccccc12` ?
Response given: inactive

Challenge: COc1cc(/C=C2/C(=O)N(C(=O)OC(C)C)C(Cc3cc(OC)c(OC)c(C)c3OC)C(=O)N2Cc2ccccc2)c(OC)c(C)c1OC (stereo not given) ?
Response given: inactive

Challenge: `O=C1/C(=C/c2ccccc2)CN(C(=O)C(Cl)(Cl)Cl)C/C1=C\c1ccccc1` ?
Response given: active

Challenge: CCOC(=O)CCC(NC(=O)c1ccc(/N=C/c2nc3ccccc3nc2-c2ccccc2)cc1)C(=O)OCC (stereo not given) ?
Response given: inactive

Challenge: `O=C1C=CC(=O)c2c(O)nc(CBr)nc21` ?
Response given: inactive

Challenge: CCOP(=O)(OCC)C(Cc1c[nH]c2ccccc12)C(=O)O (stereo not given) ?
Response given: inactive

Challenge: `Cc1c2cc[n+](C)cc2c(C)c2c1[nH]c1ccc(Cl)cc12` ?
Response given: inactive

Challenge: `CCOc1ccccc1NC(=O)C(=O)CC(=O)C1=C(C)Nc2ccccc2S1` ?
Response given: inactive

---

Test system: HT-29
Assay: NCI tumour cell line growth inhibition, 48 h
Active and inactive are the calls of the source. No stated cut-off is given here; in the data, active = GI50 up to about 1.1 µM and inactive = higher.
Please answer using one outcome listed in active, inactive

Known results for compounds:
{"compound": "CN(C)C(=S)SCC(N)=O", "category.label": "inactive"}
{"compound": "O=C1CSC(c2ccc(Cl)cc2Cl)N1c1ccc(Oc2ccc(Cl)cc2)c(Cl)c1 (stereo unspecified)", "category.label": "inactive"}

Challenge: Hello, I am checking results. What call was entered for `N#Cc1ccc(-c2nc3c(N)nc(-c4ccccc4)nc3o2)cc1` ?
Response given: inactive

Challenge: `N#Cc1c(C(N)=O)ncn1Cc1ccccc1` ?
Response given: inactive

Challenge: COc1cc(C2c3cc4c(cc3C(NCC(O)CO)C3COC(=O)[C@H]23)OCO4)cc(OC)c1OC (stereo partly specified) ?
Response given: active

Challenge: Cc1cc(O)nc(NN2C(Cl)C(=O)C2c2cccc([N+](=O)[O-])c2)n1 (stereo unspecified) ?
Response given: inactive

Challenge: `COc1ccc(/C=C(\C#N)c2nc(-c3cc4ccccc4oc3=O)cs2)cc1` ?
Response given: inactive

---

Tested on: UACC-257
Assay: NCI tumour cell line growth inhibition, 48 h
The source made the active and inactive calls. Rule as the data show it: active = GI50 up to about 1.1 µM and inactive = higher.
measurement.label: GI50

{"compound": "CCc1nnc(CC)n1NCCCC(=O)O", "GI50": "> 100 µM (inactive)"}

Challenge: Can you look up the measured GI50 of COC1CC(=O)C2C(=O)N(c3ccccc3)C(=O)C23C(C(=O)c2ccccc2)=C(C)NC13O (stereo not given) for me?
Response given: 22.9 µM (inactive)

Challenge: `CN(C)C(=O)/N=c1\ss/c(=N\C(=S)N(C)C)n1-c1ccccc1` ?
Response given: 15.5 µM (inactive)

---

Tested on: EKVX
Assay: NCI tumour cell line growth inhibition, 48 h
The source made the active and inactive calls. Rule as the data show it: active = GI50 up to about 1.1 µM and inactive = higher.
measurement.label: GI50

Study these solved cases before continuing.
{"compound": "CSC1=Nc2ccccc2N(C)c2c1c(-c1ccccc1)nn2C", "GI50": "65.5 µM (inactive)"}
{"compound": "O=C(CSCC(=O)N/N=C/c1ccccc1)N/N=C\\c1ccccc1", "GI50": "> 100 µM (inactive)"}
{"compound": "Nc1ccn(C2OC(COC(=O)C34CC5CC(CC(C5)C3)C4)C(O)C2O)c(=O)n1 (stereo unspecified)", "GI50": "> 100 µM (inactive)"}
{"compound": "C#CCN(Cc1ccc2nc(-c3ccccc3)c(Cl)nc2c1)c1ccc(Cl)c(Cl)c1", "GI50": "> 100 µM (inactive)"}
{"compound": "NC1CC(=O)c2cscc21 (stereo unspecified)", "GI50": "> 100 µM (inactive)"}
{"compound": "CC(C)(Br)C(Br)CCC1(C2CO2)CO1 (stereo unspecified)", "GI50": "> 5 µM (inactive)"}
{"compound": "[N-]=[N+]=CC(=O)OCCCCl", "GI50": "> 100 µM (inactive)"}
{"compound": "COc1ccc(C(=O)O)c(Cc2cccc3ccccc23)c1", "GI50": "> 100 µM (inactive)"}

Challenge: Can you look up the measured GI50 of `CCOC(=O)/C(=C\c1ccc(F)cc1)C(C)=O` for me?
Response given: 22.3 µM (inactive)

Challenge: `O=C(O)c1ccccc1-c1ccccc1C(=O)Nc1ccc2c(c1)Cc1cc(F)ccc1-2` ?
Response given: 27.1 µM (inactive)

Challenge: `Cc1cc(NS(=O)(=O)c2ccc(Nc3c4ccccc4nc4c(C(=O)NCCO)cccc34)cc2)no1` ?
Response given: 60 µM (inactive)
